Hello, the source for this data is patent US20260092071A1, in case you need it.

# TEST_TARGET: SMARCA4 (Homo sapiens)
# Sequence (P51532 whole entry): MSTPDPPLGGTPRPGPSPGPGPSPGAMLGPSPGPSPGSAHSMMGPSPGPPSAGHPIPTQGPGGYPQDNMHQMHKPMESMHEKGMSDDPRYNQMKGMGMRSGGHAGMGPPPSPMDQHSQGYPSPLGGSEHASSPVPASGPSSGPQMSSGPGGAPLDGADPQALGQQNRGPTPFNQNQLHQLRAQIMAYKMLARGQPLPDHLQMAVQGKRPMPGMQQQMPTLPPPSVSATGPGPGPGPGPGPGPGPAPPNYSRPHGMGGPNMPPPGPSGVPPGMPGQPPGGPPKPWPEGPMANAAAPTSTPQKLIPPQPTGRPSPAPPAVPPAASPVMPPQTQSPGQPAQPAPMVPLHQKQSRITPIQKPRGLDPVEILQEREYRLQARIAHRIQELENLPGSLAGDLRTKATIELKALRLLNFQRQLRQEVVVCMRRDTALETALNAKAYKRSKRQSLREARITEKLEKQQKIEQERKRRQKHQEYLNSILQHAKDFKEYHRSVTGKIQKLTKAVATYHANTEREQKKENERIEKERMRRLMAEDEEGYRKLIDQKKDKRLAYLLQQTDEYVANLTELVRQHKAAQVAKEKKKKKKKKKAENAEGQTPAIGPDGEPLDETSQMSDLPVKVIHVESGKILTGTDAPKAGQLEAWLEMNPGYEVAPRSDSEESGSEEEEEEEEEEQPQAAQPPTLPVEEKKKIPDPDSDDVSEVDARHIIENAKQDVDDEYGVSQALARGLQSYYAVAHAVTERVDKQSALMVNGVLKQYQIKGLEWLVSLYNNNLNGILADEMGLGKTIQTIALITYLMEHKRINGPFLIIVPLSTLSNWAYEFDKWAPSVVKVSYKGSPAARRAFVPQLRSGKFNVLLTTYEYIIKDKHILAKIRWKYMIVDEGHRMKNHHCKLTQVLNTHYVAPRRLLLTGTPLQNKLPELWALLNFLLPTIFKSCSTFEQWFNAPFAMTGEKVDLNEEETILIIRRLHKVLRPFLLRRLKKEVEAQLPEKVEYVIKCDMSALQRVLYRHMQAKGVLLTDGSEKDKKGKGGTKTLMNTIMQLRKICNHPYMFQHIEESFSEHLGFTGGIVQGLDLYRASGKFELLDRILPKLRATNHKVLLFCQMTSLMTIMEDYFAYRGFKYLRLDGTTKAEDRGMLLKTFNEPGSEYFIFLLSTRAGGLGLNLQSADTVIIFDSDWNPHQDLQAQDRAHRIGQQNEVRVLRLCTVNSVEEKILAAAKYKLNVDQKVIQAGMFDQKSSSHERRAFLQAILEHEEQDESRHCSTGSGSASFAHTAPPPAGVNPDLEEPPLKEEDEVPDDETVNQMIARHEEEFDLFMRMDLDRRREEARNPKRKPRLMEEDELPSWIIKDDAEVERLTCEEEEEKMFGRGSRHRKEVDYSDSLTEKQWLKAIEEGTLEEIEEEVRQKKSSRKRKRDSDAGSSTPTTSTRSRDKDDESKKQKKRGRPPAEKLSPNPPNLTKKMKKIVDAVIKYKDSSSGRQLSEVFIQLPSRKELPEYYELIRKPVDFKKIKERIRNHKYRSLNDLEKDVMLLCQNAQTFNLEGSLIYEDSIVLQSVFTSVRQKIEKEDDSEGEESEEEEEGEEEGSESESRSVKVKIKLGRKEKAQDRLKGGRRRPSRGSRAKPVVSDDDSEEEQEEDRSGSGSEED
# ASSAY_EXPLANATION: HiBit assay in engineered HT1080 CRISPR knock-in cell, 6 hrs (B series), SMARCA4
# Type: cell-based
# DETAILS: HT1080 CRISPR knock-in cells, 6 hrs incubation; read-out: SMARC A4 HT1080 HiBit DC50
TEST_READOUT: DC50

INSERT INTO measurements (compound, measured_result) VALUES
  ('Cc1ncsc1-c1ccc([C@H](CN2CCOCC2)NC(=O)[C@@H]2C[C@@H](O)CN2C(=O)[C@@H](n2cc([C@H]3CC[C@H](S(=O)(=O)N4CCC(c5ccc6c(c5)-n5c(nc(=O)c7c(Cl)cccc75)C65CCCCC5)CC4)CC3)nn2)C(C)(C)C)cc1', '501 to 1000 nM'),
  ('Cc1nc(C)c(-c2ccc([C@H](C)NC(=O)[C@@H]3C[C@@H](O)CN3C(=O)[C@@H](c3cc(N4CCC(c5cccc6c5C(C)(C)c5nc(=O)c7c(Cl)cccc7n5-6)CC4)no3)C(C)C)cc2)s1', '100 to 500 nM');

# input Consider the compound Cc1ncsc1-c1ccc([C@H](CC(=O)NCC2CCC(N3CCC(c4ccc5c(c4)-n4c(nc(=O)c6c(Cl)cccc64)C5(C)C)CC3)CC2)NC(=O)[C@@H]2C[C@@H](O)CN2C(=O)[C@@H](NC(=O)C2(F)CC2)C(C)(C)C)cc1 (stereo partly shown) [Compound B54] and give its recorded DC50.
# output 100 to 500 nM

# input Consider the compound Cc1ncsc1-c1ccc([C@H](C)NC(=O)[C@@H]2C[C@@H](O)CN2C(=O)[C@H](C(C)C)n2cc(CCN3CCC(c4ccc5c(c4)-n4c(nc(=O)c6c(Cl)cccc64)C5(C)C)CC3)nn2)cc1 and give its recorded DC50.
# output < 100 nM

* * *

# Dmax listing for each entry below
# TEST_TARGET: SMARCA4 (Homo sapiens)
# ASSAY_EXPLANATION: HiBit assay in engineered HT1080 CRISPR knock-in cell, 6 hrs (B series), SMARCA4
# Type: cell-based
# DETAILS: HT-1080, HT1080 CRISPR knock-in cells, 6 hrs incubation; read-out: SMARC A4 HT1080 HiBit Dmax(%)

INSERT INTO measurements (compound, measured_result) VALUES
  ('Cc1ncsc1-c1ccc([C@H](C)NC(=O)[C@@H]2C[C@@H](O)CN2C(=O)[C@@H](NC(=O)CCn2cc(-c3ccc4c(c3)-n3c(nc(=O)c5c(Cl)cccc53)C4(C)C)cn2)C(C)(C)C)cc1 [Compound B92]', '< 50%'),
  ('Cc1ncsc1-c1ccc([C@H](C)NC(=O)[C@@H]2C[C@@H](O)CN2C(=O)[C@@H](NC(=O)CN2CCC(c3ccc4c(c3)C(C)(C)c3nc(=O)c5c(Cl)cccc5n3-4)CC2)C(C)(C)C)cc1 [Compound B6]', '> 90%'),
  ('Cc1ncsc1-c1ccc(C2(NC(=O)[C@@H]3C[C@@H](O)CN3C(=O)[C@@H](n3cc([C@H]4CC[C@H](CN5CCC(c6ccc7c(c6)-n6c(nc(=O)c8c(Cl)cccc86)C7(C)C)CC5)CC4)nn3)C(C)(C)C)CNC2)cc1 [Compound B113]', '< 50%');

# input Consider the compound Cc1ncsc1-c1ccc([C@H](C)NC(=O)[C@@H]2C[C@@H](O)CN2C(=O)[C@H](C(C)C)n2cc(CC3CCC(N4CCC(c5cccc6c5C(C)(C)c5nc(=O)c7c(Cl)cccc7n5-6)CC4)CC3)nn2)cc1 (stereo partly drawn) [Compound B132] and give its recorded Dmax.
# output 70 to 90%

# input Consider the compound Cc1ncsc1-c1ccc([C@H](C)NC(=O)[C@@H]2C[C@@H](O)CN2C(=O)[C@@H](c2cc(OCC3(CN4CCC(c5ccc6c(c5)C(C)(C)c5nc(=O)c7c(Cl)cccc7n5-6)CC4)CC3)no2)C(C)C)cc1 [Compound B82] and give its recorded Dmax.
# output 50 to 69%

# input Consider the compound CNC(=O)[C@@H]1C[C@@H](O)CN1C(=O)[C@H](C(C)C)n1cc([C@H]2CC[C@H](CN3CCC(c4ccc5c(c4)-n4c(nc(=O)c6c(Cl)cccc64)C5(C)C)CC3)CC2)nn1 [Compound B59] and give its recorded Dmax.
# output < 50%

# input Consider the compound Cc1ncsc1-c1ccc([C@H](CN2CCOCC2)NC(=O)[C@@H]2C[C@@H](O)CN2C(=O)[C@H](C(C)C)n2cc([C@H]3CC[C@H](CN4CCC(c5ccc6c(c5)-n5c(nc(=O)c7c(Br)cccc75)C65CCCCC5)CC4)CC3)nn2)cc1 [Compound B106] and give its recorded Dmax.
# output > 90%

# input Consider the compound Cc1ncsc1-c1ccc([C@H](C)NC(=O)[C@@H]2C[C@@H](O)CN2C(=O)[C@@H](NC(=O)C23CC(CN4CCC(c5ccc6c(c5)C(C)(C)c5nc(=O)c7c(Cl)cccc7n5-6)CC4)(C2)C3)C(C)(C)C)cc1 [Compound B23] and give its recorded Dmax.
# output 70 to 90%

# input Consider the compound Cc1ncsc1-c1ccc([C@H](C)NC(=O)[C@@H]2C[C@@H](O)CN2C(=O)[C@@H](n2cc([C@H]3CC[C@H](CN4CCN(c5ccc6c(c5)-n5c(nc(=O)c7c(Cl)cccc75)C6(C)C)CC4)CC3)nn2)C(C)(C)C)cc1 [Compound B121] and give its recorded Dmax.
# output 70 to 90%
